- Tgt: S. aureus ATCC 29213 FabI (Staphylococcus aureus (strain MRSA252), UniProt Q6GI75)
- Protocol summary: Staphylococcus aureus FabI enzyme inhibition assay
- Type: biochemical
- Stated conditions: pH 6.5, 30 minutes at room temperature
Endpoint name: FabI IC50 (µg/mL)
Answers are plain numbers, in µg/mL.

Your task in this section: give FabI IC50 for each listed record.
1. COc1ccsc1C1=CC2CN(C(=O)/C=C/c3cnc4c(c3)CCC(=O)N4)CC2C1 (stereo not shown) [compound 72]
2. O=C1CCc2cc(/C=C/C(=O)N3C[C@@H]4CN(c5cccs5)C[C@@H]4C3)cnc2N1 [compound 4]
3. Cc1cscc1C1=CC2CN(C(=O)/C=C/c3cnc4c(c3)CCC(=O)N4)CC2C1 (stereo not shown) [compound 60]
4. O=C1CCc2cc(/C=C/C(=O)N3C[C@@H]4CN(S(=O)(=O)c5ccccc5)C[C@@H]4C3)cnc2N1 [compound 33]
5. O=C1CCc2cc(/C=C/C(=O)N3C[C@@H]4CN(c5cccc(Cl)c5)C[C@@H]4C3)cnc2N1 [compound 36]
6. O=C1CCc2cc(/C=C/C(=O)N3CC4CC(F)(F)CC4C3)cnc2N1 (stereo not shown) [compound 34]

Result:
1: 0.43; 2: 0.70; 3: 0.59; 4: 3.06; 5: 0.93; 6: 1.67

Count: 6. Required value per item: FabI IC50.
1. Cc1ccccc1N1C[C@H]2CN(C(=O)/C=C/c3cnc4c(c3)CCC(=O)N4)C[C@H]2C1 [compound 17]
2. Cn1nccc1C1=CC2CN(C(=O)/C=C/c3cnc4c(c3)CCC(=O)N4)CC2C1 (stereo not shown) [compound 15]
3. O=C1CCc2cc(/C=C/C(=O)N3C[C@H]4CN(Cc5cccs5)C[C@H]4C3)cnc2N1 [compound 6]
4. O=C1CCc2cc(/C=C/C(=O)N3C[C@@H]4CN(c5ccccc5Cl)C[C@@H]4C3)cnc2N1 [compound 18]
5. O=C1CCc2cc(/C=C/C(=O)N3CC4C=C(c5cccnc5)CC4C3)cnc2N1 (racemic) [compound 26]
6. O=C1CCc2cc(/C=C/C(=O)N3CC4C=C(c5ccoc5)CC4C3)cnc2N1 (stereo not shown) [compound 22]

Result:
1. 0.38
2. 0.48
3. 3.73
4. 0.44
5. 0.41
6. 0.58

Please supply FabI IC50 for each of the following items, keeping them in order.
1. O=C1CCc2cc(/C=C/C(=O)N3C[C@@H]4CN(c5ccc(Cl)cc5)C[C@@H]4C3)cnc2N1 [compound 35]
2. Cc1ccc(C2=CC3CN(C(=O)/C=C/c4cnc5c(c4)CCC(=O)N5)CC3C2)o1 (stereo not shown) [compound 57]
3. O=C1CCc2cc(/C=C/C(=O)N3C[C@H]4CC(c5ccncc5)=C[C@H]4C3)cnc2N1 (single isomer, unassigned) [compound 40]
4. O=C1CCc2cc(/C=C/C(=O)N3C[C@@H]4CC(c5ccccc5)=C[C@@H]4C3)cnc2N1 (single isomer, unassigned) [compound 14]

Result:
[1.25, 0.62, 0.39, 0.40]
